Tested on: Trypanosoma brucei
assay-procedure: Inhibitory activity against adenosine uptake through P2 adenosine transporter of blood stream Trypanosoma brucei trypomastigotes at the concentration 100 ug/mL
Use True when the recorded inhibition is no lower than 70%; use False when it is lower.

>  <compound-smiles>
Nc1nc(N)nc(NCCCNCCCNCCCCCCCNCCCNCCCNc2nc(N)nc(N)n2)n1

>  <label>
True

$$$$
>  <compound-smiles>
NCCCNCCCCN(CCCN)c1nc(N)nc(N)n1

>  <label>
False

$$$$
>  <compound-smiles>
NCCCNCCCCN(CCCN)CCCNc1nc(N)nc(N)n1

>  <label>
False

$$$$
>  <compound-smiles>
N=C(N)c1ccc(/N=N/Nc2ccc(C(=N)N)cc2)cc1

>  <label>
True

$$$$
>  <compound-smiles>
Nc1[nH]cnc2ncnc1-2

>  <label>
True

$$$$

Here's the next entry for you.
Assess whether reported inhibition for NCCCCN(CCCN)c1nc(N)nc(N)n1 sits at 70% or higher. True

---

Test system: Trypanosoma brucei
assay-procedure: Inhibitory activity against adenosine uptake through P2 adenosine transporter of blood stream Trypanosoma brucei trypomastigotes at the concentration 10 ug/mL
reported-endpoint: inhibition (%)
One number for each entry, in %.

Some compounds with recorded inhibition:
>  <compound>
NCCCNCCCCN(CCCN)CCCNc1nc(N)nc(N)n1

>  <unit>
%

>  <inhibition>
17

$$$$
>  <compound>
NCCCCN(CCCN)c1nc(N)nc(N)n1

>  <unit>
%

>  <inhibition>
47

$$$$
>  <compound>
N=C(N)c1ccc(/N=N/Nc2ccc(C(=N)N)cc2)cc1 [DIMINAZENE]

>  <unit>
%

>  <inhibition>
84

$$$$

# per-item lookup of inhibition; items listed below
1. Nc1[nH]cnc2ncnc1-2
2. NCCCCN(CCCN)CCCNc1nc(N)nc(N)n1
3. Nc1nc(N)nc(NCCCNCCCNCCCCCCCNCCCNCCCNc2nc(N)nc(N)n2)n1
4. Nc1nc(N)nc(NCCCNCCCCCCCNCCCNc2nc(N)nc(N)n2)n1
5. NCCCNCCCCCCCNCCCNc1nc(N)nc(N)n1

1. 89
2. 5
3. 18
4. 63
5. 32

Noted for NCCCNCCCCN(CCCN)c1nc(N)nc(N)n1 : its inhibition reads 44

---

Kindly state inhibition for each of the entries shown.
System: Trypanosoma brucei
assay-procedure: Inhibitory activity against adenosine uptake through P2 adenosine transporter of blood stream Trypanosoma brucei trypomastigotes at the concentration 100 ug/mL
Answers are plain numbers, in %.

>  <compound-smiles>
Nc1nc(N)nc(NCCCNCCCCCCCNCCCNc2nc(N)nc(N)n2)n1

>  <tested-system>
Trypanosoma brucei

>  <reported-endpoint>
inhibition

>  <quantitative-result>
93

$$$$

# per-item lookup of inhibition; items listed below
1. NCCCNCCCCCCCNCCCNc1nc(N)nc(N)n1
2. NCCCCN(CCCN)CCCNc1nc(N)nc(N)n1

77
61
